- System: CCRIS mutagenicity, Ames/micronucleus/aberration tests
- experiment.summary: CCRIS mutagenicity studies
- assay.setup: Test System: MOUSE LYMPHOMA; Strain/Indicator: L5178Y (TK+/TK-); Metabolic Activation: NONE; Method: SUSPENSION/PLATE
The source made the active and inactive calls. The rule behind the calls is not given here.
I would appreciate it if you answered using one of these outcomes: active, inactive

molecule=C[Si](Cl)(Cl)Cl class_name=inactive
molecule="O=C(O)C1C(C(=O)O)C2(Cl)C(Cl)=C(Cl)C1(Cl)C2(Cl)Cl (stereo not given)" class_name=active
molecule=Nc1cc([N+](=O)[O-])ccc1O class_name=active
molecule=COc1cc(-c2ccc(N)c(OC)c2)ccc1N class_name=active
molecule=Cc1nnc(NS(=O)(=O)c2ccc(N)cc2)s1 class_name=inactive
molecule=CC/C=C\C#N class_name=active
molecule=c1ccc(-c2ccc(-c3ccccc3)cc2)cc1 class_name=inactive
molecule=O=[N+]([O-])c1ccc(Oc2ccc(Cl)cc2Cl)cc1 class_name=inactive

Q: Hi, sorry to bother you, what did the test record for C=C(C)C(=O)OCCOCCOCCOCCOC(=O)C(=C)C ?
Ans: active

Q: Which outcome was entered for the molecule O=C(CBr)c1ccccc1 in this test?
Ans: inactive

Q: Hey, what did the test say about C1CS1 ?
Ans: active

Q: What is the recorded call for this molecule in the test? O=C(O)/C=C/c1ccccc1
Ans: active

Q: Hey, what did the test say about CCCC(O)C(CC)CO (stereo not given) ?
Ans: inactive

Q: Hi, sorry to bother you, what did the test record for Oc1ccc2c(c1)OCO2 ?
Ans: active

Q: # fetch the recorded call for O=[Se](O)O here
Ans: active
